Test: Inhibition of MCP1-mediated human THP cell migration
Measured IC50, listed per entry for reference.
State the answer as a number, implicitly in µM.

O=S(=O)(c1cccc2cnccc12)N1CCCNCC1 = 6.92
O=c1[nH]ccc2c(S(=O)(=O)N3CCCNCC3)cccc12 = 6.92

// next item, IC50 requested
Please give the measured IC50 for this molecule: C[C@@H](N)[C@H]1CC[C@H](C(=O)Nc2ccncc2)CC1 2.63
